- method-notes: Nilotinib pharmacokinetics in plasma by mass spectrometry
- Type: in vivo
- condition: human, po, 150 mg, Plasma Cmax, 150 mg oral, unbound Nilotinib
measurement-type: Cmax (nM)
Answer format: numeric, nM implied, no suffix.

query: Dear colleague, please send me the reported Cmax for Cc1cn(-c2cc(NC(=O)c3ccc(C)c(Nc4nccc(-c5cccnc5)n4)c3)cc(C(F)(F)F)c2)cn1 [Nilotinib] when you can.
result: 55

----------
- method-notes: Nilotinib pharmacokinetics in plasma by mass spectrometry
- Assay type: in vivo
- condition: human, po, 300 mg, Plasma AUC, 300 mg oral, unbound Nilotinib
measurement-type: AUC (ng·h/mL)
Answer format: numeric, ng·h/mL implied, no suffix.

query: Dear colleague, please send me the reported AUC for `Cc1cn(-c2cc(NC(=O)c3ccc(C)c(Nc4nccc(-c5cccnc5)n4)c3)cc(C(F)(F)F)c2)cn1` when you can.
result: 232

----------
- method-notes: Nilotinib pharmacokinetics in plasma by mass spectrometry
- Format: in vivo
- condition: human, po, 150 mg, Plasma AUC, 150 mg oral, unbound Nilotinib
measurement-type: AUC

query: Dear colleague, please send me the reported AUC for `Cc1cn(-c2cc(NC(=O)c3ccc(C)c(Nc4nccc(-c5cccnc5)n4)c3)cc(C(F)(F)F)c2)cn1` when you can.
result: 157 ng·h/mL

----------
- method-notes: Nilotinib pharmacokinetics in plasma by mass spectrometry
- Assay type: in vivo
- condition: human, po, 300 mg, Plasma Cmax, 300 mg oral, unbound Nilotinib
measurement-type: Cmax (nM)
Answer format: numeric, nM implied, no suffix.

query: Dear colleague, please send me the reported Cmax for `Cc1cn(-c2cc(NC(=O)c3ccc(C)c(Nc4nccc(-c5cccnc5)n4)c3)cc(C(F)(F)F)c2)cn1` when you can.
result: 86
